test system: SMN2 mRNA; experiment: Splicing RT-qPCR gene panel, SMN2 canonical junction (CJ) mRNA; type: cell-based; settings: Homo sapiens; Table 8; larger gene panel, decrease in CJ mRNA levels
pIC50: −log10 of the molar value.
The molecules listed here are annotated with their pIC50.

As a guide, the following entries are already answered.
Cc1c(O)c(-c2cc3cn(C4CCNCC4)nc3s2)cc2cn(C)nc12 [Compound 221] :: < 5.00
COc1c(-c2cc3cn(C4CCNCC4)nc3s2)cc2c[nH]nc2c1C [Compound 248] :: < 5.00
Cn1cc2cc(-c3cc4cn([C@@H]5CCNC[C@H]5O)nc4s3)cc(F)c2n1 [Compound 273] :: 6.00 to 7.00
Cn1cc2cc(-c3nc4cn(C5CCNCC5)nc4s3)c(O)cc2n1 [Compound 1110] :: > 7.00

Now for the molecule whose pIC50 we want.
Retrieve pIC50 on SMN2 mRNA; query C[C@@H]1C[C@H](c2cc3sc(-c4cc(F)c5nn(C)cc5c4)nc3s2)CCN1 (single isomer, unassigned) [Compound 192]
> 7.00
